Each entry below carries its measured IC50, system: Cytochrome P450 2C19 (Homo sapiens, UniProt P33261).
Sequence (P33261 whole entry): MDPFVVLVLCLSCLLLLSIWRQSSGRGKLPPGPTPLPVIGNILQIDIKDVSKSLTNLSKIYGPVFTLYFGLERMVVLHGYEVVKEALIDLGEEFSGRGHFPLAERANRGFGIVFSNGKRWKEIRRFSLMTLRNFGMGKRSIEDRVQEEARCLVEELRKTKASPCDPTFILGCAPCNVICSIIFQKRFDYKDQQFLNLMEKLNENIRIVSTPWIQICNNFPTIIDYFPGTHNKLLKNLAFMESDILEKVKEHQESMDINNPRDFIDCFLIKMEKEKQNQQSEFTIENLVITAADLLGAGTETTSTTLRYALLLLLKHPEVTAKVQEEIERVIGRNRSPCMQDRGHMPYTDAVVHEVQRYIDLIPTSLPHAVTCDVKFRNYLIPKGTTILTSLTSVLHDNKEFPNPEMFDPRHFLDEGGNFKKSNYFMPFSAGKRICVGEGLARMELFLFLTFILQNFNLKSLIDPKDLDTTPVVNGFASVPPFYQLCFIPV

smiles-input: CCNc1cc(C(=O)N[C@@H](Cc2ccccc2)[C@H](O)CNCc2cccc(C(F)(F)F)c2)c(F)c(N2CCCC2=O)c1
unit-text: µM
relation-symbol: =
IC50: 15
--
smiles-input: CCNc1cc(C(=O)N[C@@H](Cc2ccccc2)[C@H](O)CNCc2cnn(CC)c2)cc(N2CCCCS2(=O)=O)c1
unit-text: µM
relation-symbol: >
IC50: 89
--
smiles-input: CCNc1cc(C(=O)N[C@@H](Cc2ccccc2)[C@H](O)CNCc2cccc(C(F)(F)F)c2)c(F)c(N2CCCCS2(=O)=O)c1
unit-text: µM
relation-symbol: =
IC50: 10

----------
- assay-method-text: Blood clearance in iv dosed rat administered as saline containing kleptose and DMSO
- Type: ADME, organism-based
- condition-set: whole blood

smiles-input: CCNc1cc(C(=O)N[C@@H](Cc2ccccc2)[C@H](O)CNCc2cccc(C(F)(F)F)c2)c(F)c(N2CCCC2=O)c1
unit-text: mL/min/kg
clearance: 51

----------
- experimental-target: Beta-secretase 1 (Homo sapiens)
- Sequence (P56817 whole entry): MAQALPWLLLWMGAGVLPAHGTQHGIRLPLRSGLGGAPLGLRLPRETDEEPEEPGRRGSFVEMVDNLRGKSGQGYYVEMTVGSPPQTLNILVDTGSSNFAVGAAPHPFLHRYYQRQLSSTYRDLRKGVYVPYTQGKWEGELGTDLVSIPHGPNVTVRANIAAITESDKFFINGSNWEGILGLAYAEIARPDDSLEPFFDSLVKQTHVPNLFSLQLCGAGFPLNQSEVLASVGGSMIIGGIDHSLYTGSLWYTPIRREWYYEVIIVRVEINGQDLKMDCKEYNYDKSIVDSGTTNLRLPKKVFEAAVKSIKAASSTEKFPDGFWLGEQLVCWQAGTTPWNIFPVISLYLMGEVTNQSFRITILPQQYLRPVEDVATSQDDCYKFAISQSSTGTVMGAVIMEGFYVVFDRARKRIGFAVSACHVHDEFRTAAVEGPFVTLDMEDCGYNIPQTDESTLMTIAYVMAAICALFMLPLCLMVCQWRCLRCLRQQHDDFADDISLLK
- assay-method-text: Inhibition of BACE
pIC50: −log10 of the molar value.
Listed below: pIC50 values for each entry.

smiles-input: CCNc1cc(C(=O)N[C@@H](Cc2ccccc2)[C@H](O)CNCc2cccc(C(F)(F)F)c2)c(F)c(N2CCCCS2(=O)=O)c1
pIC50: 8.70
//
smiles-input: CCNc1cc(C(=O)N[C@@H](Cc2ccccc2)[C@H](O)CNCc2cccc(C(F)(F)F)c2)c(F)c(N2CCCC2=O)c1
pIC50: 8.05
//
smiles-input: CCNc1cc(C(=O)N[C@@H](Cc2ccccc2)[C@H](O)CNCc2cnn(CC)c2)cc(N2CCCCS2(=O)=O)c1
pIC50: 8.00

----------
- assay-method-text: Bioavailability in ipv dosed rat
- Assay type: ADME, organism-based
- condition-set: in vivo
measured-endpoint: bioavailability (%)

smiles-input: CCNc1cc(C(=O)N[C@@H](Cc2ccccc2)[C@H](O)CNCc2cccc(C(F)(F)F)c2)c(F)c(N2CCCC2=O)c1
endpoint-result: 38

----------
Record type: pIC50 measurement. Applies to: Beta-secretase 2 (Homo sapiens)
pIC50: −log10 of the molar value.

smiles-input: CCc1ccnc2c(N3CCCC3=O)cc(C(=O)N[C@@H](Cc3ccccc3)[C@H](O)CNCc3cccc(C(F)(F)F)c3)cc12
experimental-target: Beta-secretase 2 (Homo sapiens)
Sequence (Q9Y5Z0 whole entry): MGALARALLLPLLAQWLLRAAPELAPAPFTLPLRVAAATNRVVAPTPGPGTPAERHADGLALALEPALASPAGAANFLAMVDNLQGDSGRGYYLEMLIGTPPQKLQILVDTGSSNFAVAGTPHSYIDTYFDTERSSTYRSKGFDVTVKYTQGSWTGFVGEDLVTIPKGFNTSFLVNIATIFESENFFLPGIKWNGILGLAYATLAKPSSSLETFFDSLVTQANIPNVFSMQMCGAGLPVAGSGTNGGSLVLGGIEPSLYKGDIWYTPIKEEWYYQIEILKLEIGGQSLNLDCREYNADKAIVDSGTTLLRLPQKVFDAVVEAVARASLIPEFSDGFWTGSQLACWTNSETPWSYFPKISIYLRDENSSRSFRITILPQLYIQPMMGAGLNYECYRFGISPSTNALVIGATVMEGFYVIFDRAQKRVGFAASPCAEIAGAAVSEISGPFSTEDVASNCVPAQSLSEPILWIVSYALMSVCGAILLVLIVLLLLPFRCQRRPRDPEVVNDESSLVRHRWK
pIC50: 4.88

smiles-input: CCNc1cc(C(=O)N[C@@H](Cc2ccccc2)[C@H](O)CNCc2cncc(C#N)c2)cc(N2CCCCS2(=O)=O)c1
experimental-target: Beta-secretase 2 (Homo sapiens)
pIC50: 5.11

smiles-input: CCn1nnc2c(N3CCCC3=O)cc(C(=O)N[C@@H](Cc3ccccc3)[C@H](O)CNCc3cccc(C(F)(F)F)c3)cc21
experimental-target: Beta-secretase 2 (Homo sapiens)
pIC50: 5.05

smiles-input: CCn1ccc2c(N3CCCC3=O)cc(C(=O)N[C@@H](Cc3ccccc3)[C@H](O)CNCc3cccc(C(F)(F)F)c3)cc21
experimental-target: Beta-secretase 2 (Homo sapiens)
pIC50: 5.08
